Source: a melting point compilation (Tetko et al.)

ENDPOINT LABEL: melting point (°C)

Prompt: Which melting point is listed for CC(O)c1cccc(N)c1 (configuration not stated) ?
Response: 68

A: CC(C)C(=NO)C(C)C
B: O=C(O)C1CC1C(=O)Nc1ccc(Cl)cc1Cl (configuration not stated)
Prompt: Identify the entry with the larger melting point. Options: A and B Output the label that corresponds to your choice.
Response: B

----------
ENDPOINT LABEL: melting point (°C)

// worked examples, melting point included
Prompt: Which melting point is listed for COc1ccccc1-c1nnc2n1NC(c1ccccc1O)S2 (configuration not stated) ?
Response: 205

Prompt: # iterate: O=C(O)CCCCCCC(=O)c1ccccc1
Response: 81

a: Cc1ccc(F)cc1
b: CC1=C(C)C2=CC=C3C(O)=C(CC(C)O)C(=O)C(O)=C3C2(C)CC1=O (configuration not stated)
Prompt: # compare melting point for a vs b ; return the one with the smaller value Output the label that corresponds to your choice.
Response: a
(a: -56 °C, b: 187 °C)
